- assayedSystem: Tyrosine-protein kinase ZAP-70 (Homo sapiens) (UniProt P43403)
- Sequence (P43403 whole entry): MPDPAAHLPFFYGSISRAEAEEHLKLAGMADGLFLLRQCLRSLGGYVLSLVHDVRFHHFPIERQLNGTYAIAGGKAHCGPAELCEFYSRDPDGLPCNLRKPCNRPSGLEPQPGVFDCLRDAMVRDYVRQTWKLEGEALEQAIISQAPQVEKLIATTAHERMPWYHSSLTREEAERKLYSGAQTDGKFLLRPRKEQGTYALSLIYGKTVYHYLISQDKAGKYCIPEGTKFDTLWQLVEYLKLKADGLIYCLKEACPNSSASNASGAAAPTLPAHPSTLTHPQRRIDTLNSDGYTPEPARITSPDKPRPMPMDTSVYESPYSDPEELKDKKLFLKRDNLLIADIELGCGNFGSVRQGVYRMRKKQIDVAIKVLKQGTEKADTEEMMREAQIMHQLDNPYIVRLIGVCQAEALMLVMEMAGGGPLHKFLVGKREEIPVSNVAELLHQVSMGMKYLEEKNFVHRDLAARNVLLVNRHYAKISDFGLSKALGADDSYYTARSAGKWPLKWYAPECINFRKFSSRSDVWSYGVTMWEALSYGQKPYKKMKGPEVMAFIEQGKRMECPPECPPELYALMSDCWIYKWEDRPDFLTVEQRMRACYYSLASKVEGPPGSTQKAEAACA
- conditionContext: at 1 µM
- Description: GSK_PKIS: ZAP70 mean inhibition at 1 uM [Nanosyn]
Some compounds, each annotated with its measured inhibition.
Kindly format the answer as number then unit.

// solved cases for inhibition follow
> print(dat)
                            smilesstructure  result
1  CN1CCN(CCCNc2nc3ccc(Oc4ccc(NC(=O)Nc5cc(C(F)(F)F)ccc5F)cc4)cc3[nH]2)CC1   2.82%
2      CCc1cccc(CC)c1/C=C/c1cncc(C(=O)NC)c1   0.77%

From here, focus on the item given below.
Record request: inhibition value, item `O=C(NCC1CC1)c1ccc(-c2cccc(C(=O)NC3CC3)c2)cc1`
1.3%

---

Some compounds, each annotated with its measured inhibition.
- assayedSystem: Inhibitor of nuclear factor kappa-B kinase subunit epsilon (Homo sapiens) (UniProt Q14164);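 further: mean inhibition of IKKε reported, from the GSK PKIS dataset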
- Sequence (Q14164 whole entry): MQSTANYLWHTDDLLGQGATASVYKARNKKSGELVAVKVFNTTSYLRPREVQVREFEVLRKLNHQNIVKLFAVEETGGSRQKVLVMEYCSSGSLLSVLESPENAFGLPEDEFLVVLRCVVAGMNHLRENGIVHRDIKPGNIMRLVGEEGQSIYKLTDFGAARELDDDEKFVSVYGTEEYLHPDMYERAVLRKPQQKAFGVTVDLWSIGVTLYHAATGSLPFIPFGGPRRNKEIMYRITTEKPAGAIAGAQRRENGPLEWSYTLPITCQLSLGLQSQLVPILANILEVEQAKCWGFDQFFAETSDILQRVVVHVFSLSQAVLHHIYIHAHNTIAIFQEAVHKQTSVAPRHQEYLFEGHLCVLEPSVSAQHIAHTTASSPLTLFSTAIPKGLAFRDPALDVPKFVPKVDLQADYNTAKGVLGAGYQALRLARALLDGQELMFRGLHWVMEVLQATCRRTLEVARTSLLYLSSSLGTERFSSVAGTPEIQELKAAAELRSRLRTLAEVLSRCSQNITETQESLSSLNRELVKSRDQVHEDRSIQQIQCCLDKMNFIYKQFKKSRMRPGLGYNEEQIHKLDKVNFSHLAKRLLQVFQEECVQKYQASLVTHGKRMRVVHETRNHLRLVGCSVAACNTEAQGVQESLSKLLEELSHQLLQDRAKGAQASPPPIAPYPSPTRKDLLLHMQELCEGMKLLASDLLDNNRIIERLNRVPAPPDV
- conditionContext: at 0.1 µM
Enter your answer as a number in %; do not include the unit.

> print(dat)
                            smilesstructure                             assayedsystem  resultnumber
1     O=C(Nc1n[nH]c2nc(-c3ccco3)ccc12)C1CC1  Inhibitor of nuclear factor kappa-B kinase subunit epsilon (Homo sapiens) (UniProt Q14164)         -0.37
2  COc1ccc2cc(-c3c(-c4ccncc4)nc(-c4ccc(S(C)(=O)=O)cc4C)n3C)ccc2c1  Inhibitor of nuclear factor kappa-B kinase subunit epsilon (Homo sapiens) (UniProt Q14164)          6.25
3  CN1CCN(CCCNc2nc3ccc(Oc4ccc(NC(=O)Nc5cc(C(F)(F)F)ccc5F)cc4)cc3[nH]2)CC1  Inhibitor of nuclear factor kappa-B kinase subunit epsilon (Homo sapiens) (UniProt Q14164)         -0.49
4  CCc1ccc(Oc2nccc(-c3c(-c4ccc(F)cc4)ncn3C3CCNCC3)n2)cc1  Inhibitor of nuclear factor kappa-B kinase subunit epsilon (Homo sapiens) (UniProt Q14164)           8.2
5  Fc1ccc(-c2ncn(C3CCNCC3)c2-c2ccnc(Oc3ccc(F)c(F)c3)n2)cc1  Inhibitor of nuclear factor kappa-B kinase subunit epsilon (Homo sapiens) (UniProt Q14164)           6.6

Record request: inhibition value, item `COc1cc2ncn(-c3cc(OCCc4ccccc4)c(C(N)=O)s3)c2cc1OC`
2.79

Moving on to `Fc1ccc(-c2ncn(C3CCNCC3)c2-c2ccnc(Oc3ccc4c(c3)OCO4)n2)cc1`
7.17

Moving on to `CN(C)c1ccc2c(c1)/C(=C/Nc1ccc(S(N)(=O)=O)cc1)C(=O)N2`
4.67

Moving on to `NC(=O)c1ccc(Oc2nccc(-c3c(-c4ccc(F)cc4)ncn3C3CCNCC3)n2)cc1`
8.54

Moving on to `NC(=O)Cc1ccccc1Oc1nccc(-c2c(-c3ccc(F)cc3)ncn2C2CCNCC2)n1`
2.28

Moving on to `CS(=O)(=O)CCNCc1cc(-c2cc3c(Nc4ccc(OCc5cccc(F)c5)c(Cl)c4)ncnc3s2)cs1`
6.48

Moving on to `NC(=O)c1cc(-c2ccncc2)cc(-c2ccccc2)c1N`
6.3

---

- assayedSystem: RAF proto-oncogene serine/threonine-protein kinase (Homo sapiens);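 further: values are mean CRAF kinase inhibition from profiling of the GSK Published Kinase Inhibitor Set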
- conditionContext: at 0.1 µM
metricName: inhibition (%)
Enter your answer as a number in %; do not include the unit.

// solved cases for inhibition follow
> print(dat)
                            smilesstructure  metricname  quantityunit  resultnumber
1     COc1cc(Nc2ncc(-c3ccccc3)o2)cc(OC)c1OC  inhibition             %         -3.29
2    O=C(Nc1n[nH]c2cc(-c3ccccc3)ccc12)C1CC1  inhibition             %         -0.71
3  C[C@@H](Oc1cc(-n2cnc3ccc(OCC4CCN(C)CC4)cc32)sc1C(N)=O)c1ccccc1Cl  inhibition             %          3.88

Record request: inhibition value, item `CCS(=O)(=O)c1ccc(OC)c(Nc2ncc(-c3ccccc3Cl)o2)c1`
0.78

Moving on to `FC(F)(F)c1cccc(Nc2nccc(-c3cnn4nc(-c5ccccc5)ccc34)n2)c1`
-0.56

Moving on to `COc1ccc2ncn(-c3cc(O[C@H](C)c4ccccc4Cl)c(C(N)=O)s3)c2c1`
0.5

Moving on to `NC(=O)c1cc(-c2ccncc2)cc(-c2ccccc2)c1N`
1.06

Moving on to `NCc1ccc(-n2c(-c3nonc3N)nc3cnccc32)cc1`
8.42

Moving on to `COc1ccc(C2=C(N3CCc4ccccc43)C(=O)NC2=O)cc1`
-3.24

Moving on to `O=C1NC(=O)C(c2cccc(Cl)c2)=C1Nc1ccc(Cl)c(C(=O)O)c1`
2.73

Moving on to `COc1ccc(-c2ccc3c(NC(=O)C4CC4)n[nH]c3n2)cc1`
-1.88

Moving on to `CN1CCN(CCCNc2nc3ccc(Oc4ccc(NC(=O)Nc5cc(C(F)(F)F)ccc5F)cc4)cc3[nH]2)CC1`
2.41

Moving on to `CNC(=O)c1cncc(/C=C/c2c(C)cccc2C)c1`
-5.49

Moving on to `COc1cccc(/C=N/Nc2ncnc3c2cnn3-c2cccc(OC)c2)c1`
1.07

Moving on to `CS(=O)(=O)CCNCc1ccc(-c2ccc3ncnc(Nc4ccc(OCc5ccccc5)c(Br)c4)c3c2)o1`
3.26

---

- assayedSystem: Protein kinase C beta type (Homo sapiens);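 further: GSK PKIS screen, average inhibition of the PKC-beta2 splice variant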
- conditionContext: at 1 µM
- Description: GSK_PKIS: PKC-beta2 (splice variant) mean inhibition at 1 uM [Nanosyn]
Everything with inhibition lower than 3% is not satisfied; everything else, including exactly 3%, is satisfied.

A selection of reference data follows.
> print(dat)
                            smilesstructure      classname
1  Fc1ccc(-c2ncn(C3CCNCC3)c2-c2ccnc(Oc3ccc(F)c(F)c3)n2)cc1      satisfied
2  Cc1ccc(C(=O)NC2CCC2)cc1-c1ccc(C(=O)NCC2CC2)cc1  not satisfied
3     NCc1ccc(-n2c(-c3nonc3N)nc3cnccc32)cc1      satisfied

Note: attention shifts to another entry.
In plain terms: is recorded inhibition at least 3% for `CN(C)c1ccc2c(c1)/C(=C/Nc1ccc(S(N)(=O)=O)cc1)C(=O)N2` ?
not satisfied

---

- Test system: Tyrosine-protein kinase ABL1 (Homo sapiens), P00519 [H396P]
- conditionContext: at 1 µM
metricName: inhibition (%)
Enter your answer as a number in %; do not include the unit.

// solved cases for inhibition follow
> print(dat)
                            smilesstructure  metricname  quantityunit  resultnumber
1  COc1ccc(C2=C(N3CCc4ccccc43)C(=O)NC2=O)cc1  inhibition             %          5.26
2  NS(=O)(=O)c1ccc(N/N=C2\C(=O)Nc3ccc(-c4cnco4)cc32)cc1  inhibition             %          15.5
3  Cc1ccc(C(=O)NC(C)C)cc1-c1ccc(C(=O)NCC2CC2)cc1  inhibition             %         -1.16

Record request: inhibition value, item `Fc1ccc(-c2ncn(C3CCNCC3)c2-c2ccnc(Oc3ccc(F)c(F)c3)n2)cc1`
3.19

Moving on to `NS(=O)(=O)c1ccc(Nc2cc(-c3ccc(O)c(F)c3)n[nH]2)cc1`
27.3

---

- assayedSystem: Serine/threonine-protein kinase Sgk3 (Homo sapiens) (UniProt Q96BR1);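 further: each value is a mean of replicate inhibition readings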
- Sequence (Q96BR1 whole entry): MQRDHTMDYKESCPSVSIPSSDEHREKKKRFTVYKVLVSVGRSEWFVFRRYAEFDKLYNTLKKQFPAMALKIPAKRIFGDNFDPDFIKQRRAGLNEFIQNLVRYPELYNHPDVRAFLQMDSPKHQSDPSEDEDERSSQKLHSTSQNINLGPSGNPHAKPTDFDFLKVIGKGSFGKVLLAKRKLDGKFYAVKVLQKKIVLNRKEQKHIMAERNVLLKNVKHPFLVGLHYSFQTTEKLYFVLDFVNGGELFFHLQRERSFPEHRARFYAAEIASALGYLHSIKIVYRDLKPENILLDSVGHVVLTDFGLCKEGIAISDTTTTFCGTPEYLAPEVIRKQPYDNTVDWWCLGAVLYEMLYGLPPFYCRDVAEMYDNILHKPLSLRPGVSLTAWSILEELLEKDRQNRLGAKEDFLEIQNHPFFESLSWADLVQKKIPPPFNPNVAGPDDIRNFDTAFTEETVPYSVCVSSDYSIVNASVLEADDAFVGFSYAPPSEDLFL
- conditionContext: at 1 µM
metricName: inhibition (%)
Enter your answer as a number in %; do not include the unit.

// solved cases for inhibition follow
> print(dat)
                            smilesstructure  metricname  resultnumber
1     NCc1ccc(-n2c(-c3nonc3N)nc3cnccc32)cc1  inhibition          28.2
2  CCC(=O)Nc1ccc(C)c(-c2ccc(C(=O)NCC3CC3)cc2)c1  inhibition          2.43
3  C#Cc1cccc(Nc2ncnc3ccc(OCCCCNCCS(C)(=O)=O)cc23)c1  inhibition          4.46

State its inhibition on Serine/threonine-protein kinase Sgk3 (Homo sapiens) (UniProt Q96BR1): `C[C@@H](Oc1cc(-n2cnc3ccc(OC4CCN(C)CC4)cc32)sc1C(N)=O)c1ccccc1Cl`
2.26

Moving on to `Fc1ccc(-c2ncn(C3CCNCC3)c2-c2ccnc(Oc3ccc4c(c3)OCO4)n2)cc1`
4.11

Moving on to `CCc1nccc2c1nc(-c1nonc1N)n2CC`
7.73

Moving on to `CCS(=O)(=O)c1ccc(OC)c(Nc2ncc(-c3ccccc3Cl)o2)c1`
-1.36

Moving on to `Cc1nnc(-c2ccc(C)c(-c3ccc(C(=O)NCc4ccc(Cl)cc4)cc3)c2)o1`
5.66

Moving on to `COc1cccc(-n2cnc3c(N/N=C/c4ccncc4)ncnc32)c1`
3.83

Moving on to `O=C1Nc2ccccc2/C1=C/Nc1ccc(-n2cncn2)cc1`
8.06

Moving on to `NC(=O)c1cc(-c2ccncc2)cc(-c2ccccc2)c1N`
5.81

Moving on to `N#Cc1ccc(Oc2nccc(-c3c(-c4ccc(F)cc4)ncn3C3CCNCC3)n2)cc1`
3.62

Moving on to `COc1ccc2ncn(-c3cc(O[C@H](C)c4ccccc4Cl)c(C(N)=O)s3)c2c1`
5.77

Moving on to `CN(C)CCCNc1nccc(-c2c(-c3ccc(F)cc3)nn3cc(C(F)(F)F)ccc23)n1`
0.78

Moving on to `FC(F)(F)c1cccc(Nc2nccc(-c3cnn4nc(-c5ccccc5)ccc34)n2)c1`
1.72

Moving on to `COc1cc(N2CCN(C(C)C)CC2)ccc1Nc1nc(Nc2ccc(F)cc2C(=O)NC[C@@H](O)CO)c2cc[nH]c2n1`
6.24

Moving on to `COc1cc(Nc2ncc(-c3ccccc3)o2)cc(OC)c1OC`
0.29

Moving on to `Cc1ccc(NC(=O)c2ccoc2)cc1-c1ccc(C(=O)NCC2CC2)cc1`
3.98

Moving on to `COc1cc2ncn(-c3cc(OCCc4ccccc4)c(C(N)=O)s3)c2cc1OC`
2.59

Moving on to `CCN(CC)Cc1ccc(Nc2nccc(-c3cnn4ncccc34)n2)cc1`
2.8

Moving on to `COc1cc(Nc2ncc3c(C)nc(-c4cccc(C(F)(F)F)c4)n3n2)cc(OC)c1OC`
8.49
